# Target or test system: β-secretase(BACE) (Homo sapiens)
# Construct: purchased Panvera
# Test description: BACE Assay-1 (MCA-substrate, IC50)
# Format: biochemical
# Conditions: procedure of Example 158; read-out: IC50 μM (158)
Reported IC50 values for the following compounds.

[
  {
    "Compound": "CCCN1Cc2cc(Oc3cccc(NC(=O)c4ccccc4)c3)ccc2N=C1N",
    "Target or test system": "β-secretase(BACE) (Homo sapiens)",
    "Unit": "µM",
    "IC50": 5.6
  },
  {
    "Compound": "NC1=Nc2ccc(Oc3ccccc3)cc2CN1C(CCNC(=O)C1CCCCC1)C1CCCCC1 (stereo not drawn)",
    "Target or test system": "β-secretase(BACE) (Homo sapiens)",
    "Unit": "µM",
    "IC50": 0.054
  },
  {
    "Compound": "CC(C)N(C)C(=O)CCN1Cc2cc(C(=O)c3ccccc3)ccc2N=C1N",
    "Target or test system": "β-secretase(BACE) (Homo sapiens)",
    "Unit": "µM",
    "IC50": 12
  },
  {
    "Compound": "CN(CCCN1Cc2cc(C(=O)c3ccccc3)ccc2N=C1N)C1CCCCC1",
    "Target or test system": "β-secretase(BACE) (Homo sapiens)",
    "Unit": "µM",
    "IC50": 2.3
  },
  {
    "Compound": "CCCC(CCC(=O)N(CC)C1CCCCC1)N1Cc2cc(Oc3ccccc3)ccc2N=C1N (stereo not drawn)",
    "Target or test system": "β-secretase(BACE) (Homo sapiens)",
    "Unit": "µM",
    "IC50": 0.16
  },
  {
    "Compound": "CCCN1Cc2cc(Oc3cccc(N(C(=O)OCc4ccccc4)C4CCCCC4)c3)ccc2N=C1N",
    "Target or test system": "β-secretase(BACE) (Homo sapiens)",
    "Unit": "µM",
    "IC50": 0.8
  }
]

====

# Target or test system: β-secretase(BACE) (Homo sapiens, UniProt P56817)
# Construct: purchased Panvera
# Sequence (P56817 46-501): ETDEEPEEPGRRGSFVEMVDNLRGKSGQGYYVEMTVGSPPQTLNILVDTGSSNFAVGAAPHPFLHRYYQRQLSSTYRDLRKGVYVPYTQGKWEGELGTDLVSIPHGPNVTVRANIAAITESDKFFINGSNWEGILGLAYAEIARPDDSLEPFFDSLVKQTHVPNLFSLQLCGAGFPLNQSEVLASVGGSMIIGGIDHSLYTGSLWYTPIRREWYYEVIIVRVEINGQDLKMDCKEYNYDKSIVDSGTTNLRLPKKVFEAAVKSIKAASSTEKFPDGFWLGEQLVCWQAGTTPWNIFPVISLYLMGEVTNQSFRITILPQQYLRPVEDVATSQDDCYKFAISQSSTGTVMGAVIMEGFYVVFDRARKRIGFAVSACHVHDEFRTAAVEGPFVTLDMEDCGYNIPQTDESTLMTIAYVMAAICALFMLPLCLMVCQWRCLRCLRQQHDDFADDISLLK
# Test description: BACE FS1% Inhibition Assay
# Type: biochemical
# Conditions: 1 μM test compound; FS1 substrate

[
  {
    "Compound": "NC1=Nc2ccc(-c3cccc(CO)c3)cc2CN1CCNC(=O)Cc1ccccc1",
    "% Inhibition (FS) 1 μM": "<30%"
  },
  {
    "Compound": "CN(C(=O)c1cccc(CN2Cc3cc(OC4CCCC4)ccc3N=C2N)c1)C1CCCCC1",
    "% Inhibition (FS) 1 μM": "<30%"
  },
  {
    "Compound": "CN(C(=O)c1cccc(CN2Cc3cc(-c4cn[nH]c4)ccc3N=C2N)c1)C1CCCCC1",
    "% Inhibition (FS) 1 μM": "<30%"
  },
  {
    "Compound": "NC1=Nc2ccc(Oc3ccccc3)cc2CN1CC(NC(=O)C1CCCCC1)C1CCCCC1 (centres unmarked)",
    "% Inhibition (FS) 1 μM": "<30%"
  },
  {
    "Compound": "CN(C(=O)c1cccc(CN2Cc3cc(Oc4cccc(Oc5ccccc5)c4)ccc3N=C2N)c1)C1CCCCC1",
    "% Inhibition (FS) 1 μM": "37%"
  },
  {
    "Compound": "NC1=Nc2ccc(Oc3ccccc3)cc2CN1C(CC(=O)NC1CCCCC1)c1ccccc1 (centres unmarked)",
    "% Inhibition (FS) 1 μM": "<30%"
  },
  {
    "Compound": "CN(C(=O)c1cccc(CN2Cc3cc(Oc4ccc5c(c4)CCCC5)ccc3N=C2N)c1)C1CCCCC1",
    "% Inhibition (FS) 1 μM": "32%"
  },
  {
    "Compound": "CC(C)[C@@H](CNC(=O)C12CC3CC(CC(C3)C1)C2)N1Cc2cc(Oc3ccccc3)ccc2N=C1N",
    "% Inhibition (FS) 1 μM": "<30%"
  },
  {
    "Compound": "COc1ccccc1-c1ccc2c(c1)CN(CCNC(=O)CN)C(N)=N2",
    "% Inhibition (FS) 1 μM": "<30%"
  },
  {
    "Compound": "COc1ccccc1-c1ccc2c(c1)CN(CCNC(=O)C1(C(N)=O)CC1)C(N)=N2",
    "% Inhibition (FS) 1 μM": "<30%"
  },
  {
    "Compound": "COc1ccc(Sc2ccc3c(c2)CN(Cc2cccc(C(=O)N(C)C4CCCCC4)c2)C(N)=N3)cc1OC",
    "% Inhibition (FS) 1 μM": "<30%"
  }
]

====

# reported inhibition at 3 µM; entries follow
# Target or test system: β-secretase(BACE) (Homo sapiens)
# Construct: purchased Panvera
# Test description: BACE FS1% Inhibition Assay
# Format: biochemical
# Conditions: 3 μM test compound; FS1 substrate; read-out: % Inhibition (FS) 3 μM

[
  {
    "Compound": "NC1=Nc2ccc(-c3cccc(Cl)c3)cc2CN1CCNC(=O)C1CCCCC1 [Compound 625]",
    "Target or test system": "β-secretase(BACE) (Homo sapiens)",
    "Unit": "%",
    "inhibition at 3 µM": 95
  },
  {
    "Compound": "CN(C(=O)c1cccc(CN2Cc3cc(-c4ccsc4)ccc3N=C2N)c1)C1CCCCC1 [Compound 164]",
    "Target or test system": "β-secretase(BACE) (Homo sapiens)",
    "Unit": "%",
    "inhibition at 3 µM": 109
  },
  {
    "Compound": "Cc1cccc(Oc2ccc3c(c2)CN(Cc2cccc(C(=O)N(C)C4CCCCC4)c2)C(N)=N3)c1 [Compound 209]",
    "Target or test system": "β-secretase(BACE) (Homo sapiens)",
    "Unit": "%",
    "inhibition at 3 µM": 103
  },
  {
    "Compound": "COC1CCCC(C(=O)NCCN2Cc3cc(Oc4ccccc4)ccc3N=C2N)C1 (stereo not shown) [Compound 219]",
    "Target or test system": "β-secretase(BACE) (Homo sapiens)",
    "Unit": "%",
    "inhibition at 3 µM": 108
  },
  {
    "Compound": "CC(C)CCC(=O)NCCN1Cc2cc(-c3ccccc3Cl)ccc2N=C1N [Compound 654]",
    "Target or test system": "β-secretase(BACE) (Homo sapiens)",
    "Unit": "%",
    "inhibition at 3 µM": 111
  },
  {
    "Compound": "NC1=Nc2ccc(Oc3ccccc3)cc2CN1CCNC(=O)C12CC3CC(CC(C3)C1)C2 [Compound 131]",
    "Target or test system": "β-secretase(BACE) (Homo sapiens)",
    "Unit": "%",
    "inhibition at 3 µM": 115
  },
  {
    "Compound": "COc1ccccc1-c1ccc2c(c1)CN(C(CCC(=O)N(C)C1CCCCC1)C1CCCCC1)C(N)=N2 (single isomer, unassigned) [Compound 530]",
    "Target or test system": "β-secretase(BACE) (Homo sapiens)",
    "Unit": "%",
    "inhibition at 3 µM": 118
  },
  {
    "Compound": "CN(C(=O)c1cccc(CN2Cc3cc(-c4ccccc4Br)ccc3N=C2N)c1)C1CCCCC1 [Compound 331]",
    "Target or test system": "β-secretase(BACE) (Homo sapiens)",
    "Unit": "%",
    "inhibition at 3 µM": 108
  },
  {
    "Compound": "COc1ccccc1-c1ccc2c(c1)CN(C(CCC(=O)N(C)C1CCCCC1)C1CCCCC1)C(N)=N2 (stereo not shown) [Compound 227]",
    "Target or test system": "β-secretase(BACE) (Homo sapiens)",
    "Unit": "%",
    "inhibition at 3 µM": 116
  },
  {
    "Compound": "CN(C(=O)CCCC(c1ccccc1)N1Cc2cc(Oc3ccccc3)ccc2N=C1N)C1CCCCC1 (stereo not shown) [Compound 152]",
    "Target or test system": "β-secretase(BACE) (Homo sapiens)",
    "Unit": "%",
    "inhibition at 3 µM": 85
  },
  {
    "Compound": "NC1=Nc2ccc(Oc3ccccc3)cc2CN1CCNC(=S)NC12CC3CC(CC(C3)C1)C2 [Compound 214]",
    "Target or test system": "β-secretase(BACE) (Homo sapiens)",
    "Unit": "%",
    "inhibition at 3 µM": 101
  },
  {
    "Compound": "CN(C(=O)c1cccc(CN2Cc3cc(-c4csc5ccccc45)ccc3N=C2N)c1)C1CCCCC1 [Compound 265]",
    "Target or test system": "β-secretase(BACE) (Homo sapiens)",
    "Unit": "%",
    "inhibition at 3 µM": 92
  },
  {
    "Compound": "CN(C(=O)c1cccc(CN2Cc3cc(-c4ccccc4CO)ccc3N=C2N)c1)C1CCCCC1 [Compound 174]",
    "Target or test system": "β-secretase(BACE) (Homo sapiens)",
    "Unit": "%",
    "inhibition at 3 µM": 111
  },
  {
    "Compound": "CN(C(=O)c1cccc(CN2Cc3cc(Sc4ccccc4)ccc3N=C2N)c1)C1CCCCC1 [Compound 476]",
    "Target or test system": "β-secretase(BACE) (Homo sapiens)",
    "Unit": "%",
    "inhibition at 3 µM": 102
  },
  {
    "Compound": "CC(C)N(C(=O)CCN1Cc2cc(Oc3ccccc3)ccc2N=C1N)C1CCCCC1 [Compound 179]",
    "Target or test system": "β-secretase(BACE) (Homo sapiens)",
    "Unit": "%",
    "inhibition at 3 µM": 85
  },
  {
    "Compound": "CC(C)CCC(=O)NC[C@@H](C(C)C)N1Cc2cc(Oc3ccccc3)ccc2N=C1N [Compound 564]",
    "Target or test system": "β-secretase(BACE) (Homo sapiens)",
    "Unit": "%",
    "inhibition at 3 µM": 129
  },
  {
    "Compound": "CN(C(=O)c1ccnc(CN2Cc3cc(Oc4ccccc4)ccc3N=C2N)c1)C1CCCCC1 [Compound 508]",
    "Target or test system": "β-secretase(BACE) (Homo sapiens)",
    "Unit": "%",
    "inhibition at 3 µM": 113
  },
  {
    "Compound": "CN(CCN1Cc2cc(Oc3ccccc3)ccc2N=C1N)C(=O)C1CCCCC1 [Compound 426]",
    "Target or test system": "β-secretase(BACE) (Homo sapiens)",
    "Unit": "%",
    "inhibition at 3 µM": 86
  },
  {
    "Compound": "CC1CCCCC1C(=O)NCCN1Cc2cc(Oc3ccccc3)ccc2N=C1N (stereo not shown) [Compound 218]",
    "Target or test system": "β-secretase(BACE) (Homo sapiens)",
    "Unit": "%",
    "inhibition at 3 µM": 114
  }
]
